test system: HepG2 cells

# compound, CC50
measured = [
    ("C[As](=O)(O)CC[C@H](N)C(=O)O [AST]", "> 250 µM"),
]

###

tested on: Caco-2 cells

# compound, test system, CC50
rows = [
    ("C[As](=O)(O)CC[C@H](N)C(=O)O [AST]", "Caco-2 cells", "150 to 200 µM"),
]

###

test system: macrophage-like cells differentiated from THP-1

# smiles data, CC50
data = [
    ("C[As](=O)(O)CC[C@H](N)C(=O)O", "> 250 µM"),
]

###

system: THP-1 cells

# molecule, CC50
rows = [
    ("C[As](=O)(O)CC[C@H](N)C(=O)O [AST]", "> 250 µM"),
]

###

Target: PfGS-I (P. falciparum glutamine synthetase, MBP-fused) (Plasmodium falciparum)
Sequence (W7JM41 1-544): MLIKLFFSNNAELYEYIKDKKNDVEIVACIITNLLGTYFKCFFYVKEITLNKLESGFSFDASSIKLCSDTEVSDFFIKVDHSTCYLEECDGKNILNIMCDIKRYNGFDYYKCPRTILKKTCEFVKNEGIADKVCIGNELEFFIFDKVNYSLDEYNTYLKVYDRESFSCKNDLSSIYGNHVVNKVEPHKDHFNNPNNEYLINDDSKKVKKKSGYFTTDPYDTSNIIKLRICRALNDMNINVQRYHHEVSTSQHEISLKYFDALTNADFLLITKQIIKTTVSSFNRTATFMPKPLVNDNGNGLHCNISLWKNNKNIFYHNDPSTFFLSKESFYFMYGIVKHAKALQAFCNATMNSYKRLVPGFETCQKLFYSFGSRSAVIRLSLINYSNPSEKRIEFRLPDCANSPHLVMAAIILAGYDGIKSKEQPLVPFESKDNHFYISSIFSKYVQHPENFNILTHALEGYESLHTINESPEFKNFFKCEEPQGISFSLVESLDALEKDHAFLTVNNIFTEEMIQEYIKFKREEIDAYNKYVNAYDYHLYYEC
Experiment: Glutamine synthetase assay (Glutamine/Glutamate-GLO), PfGS-I
Settings: 0.5 μM PfGS-I, 2 hours; read-out: EC50 for PfGS-I inhibition

# smiles data, EC50 [µM]
rows = [
    ("C[As](=O)(O)CC[C@H](N)C(=O)O", 0.4),
]

###

test system: HEK293 cells

# smiles data, CC50
data = [
    ("C[As](=O)(O)CC[C@H](N)C(=O)O", "> 250 µM"),
]
